Data origin: PubChem BioAssay (EPA / NIEHS)

Experiment: BSK_LPS_SRB: Viability Assessment in the BioMAP Diversity Plus: LPS Assay (AID 2283079);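 also: total protein by sulforhodamine B absorbance as a cytotoxicity measure; measured one day after compound addition; fitted in both directions against DMSO so loss or gain of signal counts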
Settings: primary human HUVEC with PBMC
Active and inactive are the calls of the source. The calls were made as follows: active = hit-call score of the fitted dose curve at least 0.9, where 1 is the maximum; inactive = score below 0.9.
Form entry, call: pick from True (active), False (inactive)

Query: Check the results log: what was the call for OCCN1CCOCC1 ?
Result: False

Query: What did the test return for CCCCOCCOCCO ?
Result: False

Query: What call does the record list for CC1=CC(C)C(C=O)C(C)C1 (stereo not drawn) (tested in a mixture with another compound) ?
Result: False

Query: GET /call?item= CCOC(=O)C=Cc1ccccc1 returns the recorded outcome of this test.
Result: False

Query: Recorded test outcome, item C=C1CC/C=C(\C)CC[C@@H]2[C@@H]1CC2(C)C
Result: True

Query: // outcome(item) with item = c1ccc(OCCOc2ccccc2)cc1
Result: False

Query: recorded result category for O=C(O)C(F)(F)C(F)(F)C(F)(F)C(F)(F)C(F)(F)C(F)(F)C(F)(F)C(F)F in this test
Result: False

Query: Status in this test for CC(=O)CCC=C(C)CCC=C(C)C ?
Result: False

====

Test: BSK_CASM3C_Proliferation: Cell Proliferation Assessment in the BioMAP Diversity Plus: CASM3C Assay (AID 2283047);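 also: sulforhodamine B total protein stain as relative cell number at 560 nm; sub-confluent cells exposed 48 h before staining; fitted both ways against DMSO so gain or loss of cell number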
Details: primary human coronary artery smooth muscle cells
Activity calls are given as the source filed them. How the source made its calls: active means hit-call score of the fitted dose curve at least 0.9, where 1 is the maximum; inactive means score below 0.9.
Use one of these outcomes when replying: class 1 = active, class 0 = inactive

Query: Outcome? O=S1(=O)CC(Cl)(Cl)C(Cl)(Cl)C1
Result: class 1

Query: Tell me the recorded outcome of this test for CCOC(=O)CCCCCCCCC(=O)OCC .
Result: class 0

Query: Record request — test call for C=C(C)C(=O)OCCC(F)(F)C(F)(F)C(F)(F)C(F)(F)C(F)(F)C(F)(F)C(F)(F)C(F)(F)F
Result: class 0

Query: Recorded test call requested for CC1(C)[C@H](C=C(Cl)Cl)[C@H]1C(=O)OCc1cccc(Oc2ccccc2)c1
Result: class 0

Query: Entry C=C(C)C(N)=O : call = ?
Result: class 0

Query: Outcome? CCn1cc(C(=O)O)c(=O)c2ccc(C)nc21
Result: class 0

Query: What is the recorded call for this compound in the test? CCC(=O)OCC=Cc1ccccc1
Result: class 0

Query: Per the records of this test, what outcome belongs to CC(=O)OCC=C(C)CCC=C(C)CCC=C(C)C ?
Result: class 0

Query: I'd appreciate the recorded outcome for O=C(O)C(F)(F)C(F)(F)C(F)(F)C(F)(F)C(F)(F)C(F)(F)C(F)(F)C(F)F from this test.
Result: class 0

Query: For CC(C)(C)c1cccc(O)c1 , which call appears in the assay record?
Result: class 0

Query: Tell me the assay call for CC(C)Cc1ccc(C(C)C(=O)O)cc1 (configuration not stated) please.
Result: class 1

Query: # fetch the recorded call for C=C(F)C(=O)OC(C(F)(F)F)C(F)(F)F here
Result: class 0

====

Assay: ATG_TA_CIS: Attagene CIS-FACTORIAL HepG2 Assay for human TA Basal Promoter (AID 2282964)
Conditions: HepG2 Attagene CIS-factorial TA basal promoter reporter; actives raise or lower the signal
Calls of active or inactive are those of the source. How the source made its calls: active means hit-call score of the fitted dose curve at least 0.9, where 1 is the maximum; inactive means score below 0.9.
experimentalEndpoint: outcome

Below, each entry is followed by its recorded outcome result.
| compound | outcome |
| --- | --- |
| CCCCCCCCCCCCCCCCCC(=O)OCCCCCCCCCCCCCC(C)C | inactive |
| CC1=CC(O)CC(C)(C)C1 (stereo not drawn) | inactive |
| O=C(O)c1cc2ccccc2cc1O | inactive |
| COC(=O)c1cccc(C(=O)OC)c1 | inactive |
| CC(C)(C)c1cccc(O)c1 | inactive |

The recorded outcome for entry CC(=O)OC/C=C(C)/C=C/C=C(C)/C=C/C1=C(C)CCCC1(C)C equals inactive

The value of outcome measured for the compound CCOC(=O)CCCCCCCCC(=O)OCC turned out to be inactive

Record COc1ccccc1NC(=O)CC(C)=O , field outcome: inactive

# compound Nc1ccn([C@H]2CC[C@@H](CO)O2)c(=O)n1 ; its outcome = inactive

get_value(item= C=C(C)C(=O)OCCC[Si](OC)(OC)OC , readout=outcome) returns inactive

// outcome lookup, compound = C[C@]12CC[C@@H]3c4ccc(O)cc4CC[C@H]3[C@@H]1CC[C@@H]2O , result: inactive

Looking up CCO[Si](CC)(OCC)OCC , I found its outcome recorded as inactive

The reported value for CC1=CCC(=C(C)C)CC1 in terms of outcome is inactive

// CCC(C)(C)C1CCC(OC)CC1 (stereo not drawn) : outcome value = inactive

Briefly, outcome measured for C=CCCCCCCCCC(=O)OCC : inactive
